# Tested on: Echinochloa crus-galli
# procedure_summary: Herbicidal activity to barnyardgrass in paddy condition, pre- and post-emergence, greenhouse pot test
# Assay type: in vivo
# conditions_used: Echinochloa crus-galli, 336 h; 10 g/ha; post-emergence, three-leaf stage; visual rating after two weeks; read-out: Herbicidal activity, Echinochloa crus-galli, Post-emergence (3-Leaf stage)
parameter: pest or weed control at 10 g/ha (%)
Please state the figure in %; there is no need to write the unit.

Use the examples below as a reference point.
COc1cc(OC)nc(NC(=O)NS(=O)(=O)c2cccnc2[C@@H](OC(=O)CO)[C@H](C)F)n1 [Com. 1] = 80
COc1cc(OC)nc(NC(=O)NS(=O)(=O)c2ccccc2[C@@H](OC(C)=O)[C@H](C)F)n1 [Standard Compound B, reference compound] = 90
COc1cc(OC)nc(NC(=O)NS(=O)(=O)c2cccnc2[C@@H](OC(C)=O)[C@H](C)F)n1 [Standard Compound D, reference compound] = 90

## Input Consider the compound shown here: CCOC(=O)c1cnn(C)c1S(=O)(=O)NC(=O)Nc1nc(OC)cc(OC)n1 [Standard Compound E, Pyrazosulfuron-ethyl, reference compound] What is its recorded pest or weed control at 10 g/ha?
## Output 0

## Input Consider the compound shown here: COc1cc(OC)nc(NC(=O)NS(=O)(=O)c2ccccc2[C@@H](O)[C@H](C)F)n1 [Standard Compound A, reference compound] What is its recorded pest or weed control at 10 g/ha?
## Output 90

Each recorded value in this set is attributed to patent US6806229B1.
